Here the recorded INHIBITION is given for each entry.
Tested on: Plasmodium berghei
method.summary: Screen against P. berghei liver stage (PbLuc), transformed with Luciferase, at 2uM
Assay type: functional, HepG2
recorded.conditions: tested at 2 uM
Among all 68,000 compounds or so, about 2,700 (4%) showed an effect of 50% or more. This excerpt belongs to a sample that is enriched for strong results.
Your answer should be a plain number; it is taken to be in %.

[
  {
    "compound": "CCNc1ncc(C(=O)NCc2ccc3nsnc3c2)cn1",
    "INHIBITION (%)": 86.69
  },
  {
    "compound": "CC(C)(C)n1ncc2c(=O)[nH]c(N3CCN(CCO)CC3)nc21",
    "INHIBITION (%)": 40.47
  },
  {
    "compound": "CCC(CNC(=O)NCc1cc[nH]n1)N1CCCC1 (stereo unspecified)",
    "INHIBITION (%)": 76.6
  },
  {
    "compound": "CCNc1ncc(C(=O)NCc2ccc(F)c(C(F)(F)F)c2)cn1",
    "INHIBITION (%)": -18.6
  },
  {
    "compound": "CC(=O)Nc1ccc(C(=O)N(C)Cc2cccc(F)c2)s1",
    "INHIBITION (%)": 45.05
  },
  {
    "compound": "CCNc1ncc(C(=O)NCc2cccc(OC(F)(F)F)c2)cn1",
    "INHIBITION (%)": -15.83
  }
]

Recorded result, "CS(=O)(=O)c1cc(Cl)cnc1C1CCN(C(=O)C2CC2)CC1" , INHIBITION: -14.56

Recorded result, "Cn1c2ncccc2c(=O)n1CC(=O)NCCC1=CCCCC1" , INHIBITION: 54.49

Recorded result, CN(C)C(C(=O)N1CC(c2ccccn2)C1)c1cccc(F)c1 (stereo unspecified) , INHIBITION: 12.35

Recorded result, "CC(C)(C)n1ncc2c(=O)[nH]c(N3CCN(CC(F)F)CC3)nc21" , INHIBITION: 66.74

Recorded result, COC(=O)c1ccc(C2SC(C)=Nc3c2c(=O)[nH]n3C2CCCC2)cc1 (stereo unspecified) , INHIBITION: -3.18

* * *

System: Plasmodium berghei
method.summary: Screen against P. berghei liver stage (PbLuc), transformed with Luciferase, at 2uM
Type: functional, HepG2
recorded.conditions: tested at 2 uM
Out of some 68,000 compounds screened, about 2,700 (4%) showed an effect of 50% or more. This is one part of a sample in which strong results are shown more often than they occur.
Categories are defined by ranges of INHIBITION, namely I (below 20%), II (20% to below 30%), III (30% or more)

Worked examples, 5 compounds total:
[
  {
    "compound": "Cc1nc2cc(O)nn2c(C)c1CCC(=O)NCc1cc(Br)cs1",
    "class.name": "I"
  },
  {
    "compound": "CCc1n[nH]c(C(=O)NCCn2ccnc2C)c1C",
    "class.name": "III"
  },
  {
    "compound": "Cc1cc(NC(=O)NCC(C)N2CCOCC2)n(C)n1 (configuration not stated)",
    "class.name": "II"
  },
  {
    "compound": "O=c1c2cccc(C(F)(F)F)c2ncn1CCN1CCNCC1",
    "class.name": "III"
  },
  {
    "compound": "CN(CCCNC(=O)NCc1ccncc1)CC(F)(F)F",
    "class.name": "II"
  }
]

Q: Bin this entry: "COCCOc1ccccc1C(=O)NCCN(C)C(C)C"
A: II

Q: Bin this entry: "CN(CCCNC(=O)c1ccccc1F)CC(F)(F)F"
A: III

Q: Bin this entry: "CCc1n[nH]c(C(=O)NCCn2nccc2C)c1C"
A: II

Q: Bin this entry: "CC1CCN(S(=O)(=O)c2cccn(CC(=O)NC3CCCC3)c2=O)CC1"
A: I

Q: Bin this entry: CCC(Nc1nnnn1-c1ccccc1)C(=O)Nc1nc(C)cs1 (configuration not stated)
A: I

Q: Bin this entry: "CCc1n[nH]c(C(=O)NCCn2ccc(C)n2)c1C"
A: I
